procedureSummary: Short-term stability in spiked pooled human plasma (bench-top, 4 °C, 56 °C)
settings: validation standard ULOV
The following molecules are shown together with reported Short-time stability (1h, 56°C) Accuracy [%] values.
valueType: Short-time stability (1h, 56°C) Accuracy [%] (%)

O=C(Nc1cnn2ccc(N3CCC[C@@H]3c3cc(F)ccc3F)nc12)N1CC[C@H](O)C1 [Larotrectinib]
50.9
COc1cc2nccc(Oc3ccc(NC(=O)Nc4cc(C)on4)c(Cl)c3)c2cc1OC [Tivozanib]
42.5
COc1cc2ncnc(Nc3ccc(F)c(Cl)c3)c2cc1NC(=O)/C=C/CN1CCCCC1 [Dacomitinib]
33.3
Cn1cnc2c(F)c(Nc3ccc(Br)cc3F)c(C(=O)NOCCO)cc21 [Binimetinib]
36.7
